I'd appreciate it if you could supply GI50 values for the items below.
system: SF-295; experiment: NCI tumour cell line growth inhibition, 48 h
The source made the active and inactive calls. Rule as the data show it: active = GI50 up to about 1.1 µM and inactive = higher.

Endpoint output: GI50 of `O=C(O)c1cc2ccccc2c(Cc2c(O)c(C(=O)O)cc3ccccc23)c1O` . Value?
> 100 µM (inactive)

So what does the record say about GI50 for COC(=O)C(C)(Cc1ccc2c(c1)nnn2C(C)=O)NC(C)=O (stereo unspecified) ?
> 100 µM (inactive)

Given `COc1ccc(OC)c(NC(=O)C(=O)CC(=O)c2sc(-n3nc(-c4ccccc4)cc3-c3ccccc3)nc2C)c1` , state its recorded GI50.
> 100 µM (inactive)

GI50 lookup needed for `CC(=O)c1c(N=[N+]=[N-])c2cccc3c2n(c1=O)CCC3` , thanks.
24.7 µM (inactive)

Which GI50 value is on record for COC(=O)C1=C(SC)SC2(C(=O)OC)C3C=C(C)C4C(N13)C42C(=O)OC (stereo unspecified) ?
> 100 µM (inactive)

Give the measured GI50 of `CC(C)CC(=O)OC[n+]1cccc(-c2c(COC(=O)NC(C)C)c(COC(=O)NC(C)C)c3n2CCC3)c1` .
39 µM (inactive)

###

Task for the reader: assign each of the following compounds its reported GI50.
system: SNB-19; assay: NCI tumour cell line growth inhibition, 48 h
Active and inactive are the calls of the source. Rule as the data show it: active = GI50 up to about 1.1 µM and inactive = higher.

Can you look up the measured GI50 of `Cc1ccc2c(c1)C(=O)c1ccc(C)nc1C2=O` for me?
22.2 µM (inactive)

Item `O=C(CSc1nc2ccc(I)cc2c(=O)n1Cc1ccccc1)NN1C(=O)c2ccccc2C1=O` has what recorded GI50?
16.5 µM (inactive)

Param item = `Cc1nc2c(n1CCCl)C(=O)c1ccccc1C2=O` ; retrieve measured GI50.
39.1 µM (inactive)

Param item = `C[C@@]12c3c4ccc(C=O)c3Oc3ccc(C=O)c(c31)Oc1c(C=O)ccc(c12)O4` ; retrieve measured GI50.
> 100 µM (inactive)

Which GI50 is reported for this compound? `CC(C)(C)OC(=O)N(O)[C@@H]1C=C[C@H](n2cnc3c(N)ncnc32)C1`
> 100 µM (inactive)

Consider the compound `CCOC(=O)/C(C(=S)NCc1ccccc1)=C(/N)N1CCCC1` and give its measured GI50.
> 100 µM (inactive)

Record request: GI50 value, item `N#C/C(=C\c1ccc2[nH]ccc2c1)C(=O)NCCCCNC(=O)/C(C#N)=C/c1ccc2[nH]ccc2c1`
> 31.6 µM (inactive)

###

tested on: RPMI-8226; test: NCI tumour cell line growth inhibition, 48 h
Active and inactive are the calls of the source. Cut-off read from the data, not from the text of the source: active = GI50 up to about 1.1 µM and inactive = higher.
experimental-endpoint: GI50

What does the record list as GI50 for CN(C)CC1CCC/C1=N\O (centres undefined) ?
> 100 µM (inactive)

Requested field: GI50. Item: O=C(O)/C(Cl)=C(\Cl)C(=O)NC1C2CC3CC(C2)CC1C3 (centres undefined)
> 100 µM (inactive)

What does the record list as GI50 for CC12Nc3ccccc3N1C(=O)c1ccccc12 (centres undefined) ?
> 100 µM (inactive)

Dear colleague, I am looking for the recorded GI50 of the following molecule: COC(=O)C1=C(N)C2=C(N)Oc3ccccc3C2CC1=C(C#N)C#N (centres undefined)
19.1 µM (inactive)

Bench note: what GI50 did `CN1CCN(Cn2nc(COc3ccccc3Cl)n(/N=C/c3ccc(-c4ccc(Cl)cc4Cl)o3)c2=S)CC1` show?
29.2 µM (inactive)

// returns reported GI50 for input CCCCCCCCCCCCCCCC(=O)OC1C(O)C(O)C(O)C(O)C12CO2 (centres undefined)
26.4 µM (inactive)

# GI50 lookup, item `Cc1nc(C)c(N2CCN(S(N)(=O)=O)CC2)c(O)n1`
> 100 µM (inactive)

// lookup GI50 for COc1ccc2c(c1)CC[C@@H]1C2CC[C@]2(C)C(=O)N(CCN3CCCC3)C(=O)CC12 (some centres undefined)
15.3 µM (inactive)

Give the measured GI50 of COc1cc2c(cc1OC)C(C#N)(Cc1ccccc1)N(C(=O)c1ccccc1)C=C2 (centres undefined) .
35.5 µM (inactive)

Requested read-out: GI50. Entry: C=C(Cl)C(C)(Cl)CCC(Br)C(C)(C)Cl (centres undefined)
13.2 µM (inactive)

Recorded GI50 of `O=C1N[C@@H]([C@H](CCCCCO)OC(=O)c2ccccc2)CO1` , please.
> 100 µM (inactive)

Which GI50 is listed for `COc1ccc(NC(=O)/C(O)=C/C(=O)c2ccccc2)cc1` ?
> 10 µM (inactive)

// GI50 lookup, key: CCOc1cc2c(cc1O)C(O)C[C@@H]1[C@@H]2CC[C@]2(C)[C@@H](O)CC[C@@H]12 (some centres undefined)
0.467 µM (active)

# query: GI50 of entry `C=CCN1C(=O)/C(=C\c2cc(C(C)(C)C)c(O)c(C(C)(C)C)c2)NC1=S`
7.87 µM (inactive)

Param item = `O=C(CC(Cl)(Cl)C(Cl)(Cl)Cl)c1ccccc1` ; retrieve measured GI50.
3.45 µM (inactive)

Would you mind telling me what GI50 value was observed for `CCc1ccc(/C(C)=N/NC(N)=S)cc1` ?
> 100 µM (inactive)

What measured GI50 goes with `C[C@@]12c3c4ccc(C=O)c3Oc3ccc(C=O)c(c31)Oc1c(C=O)ccc(c12)O4` ?
> 100 µM (inactive)

# lookup: GI50 of `CSC(=N/N=C(\C)c1ccc(S(=O)(=O)N(C)c2ccccc2)cc1)SC`
13.1 µM (inactive)

Need GI50 of `Cc1sc2ncnc(NCCc3ccccc3)c2c1C` , thanks.
10.2 µM (inactive)

###

For each record, write down the corresponding GI50.
tested on: SK-MEL-5; assay: NCI tumour cell line growth inhibition, 48 h
The source made the active and inactive calls. No stated cut-off is given here; in the data, active = GI50 up to about 1.1 µM and inactive = higher.

So what does the record say about GI50 for O=S(=O)(O)C(c1ccccc1)C(O)c1ccccc1 (configuration not stated) ?
> 100 µM (inactive)

Give its GI50 value. Item: `O=Cc1cc2c(s1)C(=O)c1sccc1C2=O`
0.129 µM (active)

// GI50 lookup, key: `CN(C)CCCNc1cnc2cc3ccccc3cc2n1`
19.6 µM (inactive)

Please look up its GI50: `CCO/N=C(/CC)c1ccc(Br)s1`
> 100 µM (inactive)

Given the compound N#CC(/C(=N\NC(=O)c1ccncc1)C(=O)Nc1ccc([N+](=O)[O-])cc1[N+](=O)[O-])c1nc(-c2ccc(Br)cc2)cs1 (configuration not stated) , what is its reported GI50?
> 100 µM (inactive)

Report GI50 for `Cc1ccc(O)c(Cc2nc3ccccc3nc2-c2cccc(Br)c2)c1` please.
> 100 µM (inactive)

# lookup: GI50 of `O=C(CC(Cl)(Cl)C(Cl)(Cl)Cl)c1ccccc1`
12 µM (inactive)

###

test system: K562; assay: NCI tumour cell line growth inhibition, 48 h
Activity calls are given as the source filed them. Rule as the data show it: active = GI50 up to about 1.1 µM and inactive = higher.
Choose one outcome from this list and give only that: class 1 = active, class 0 = inactive

Could you kindly confirm the outcome this assay logged for `CSc1c(C#N)c(N)n2c1C(=O)N(c1ccccc1)C2=S` ?
class 0

State the result this test recorded for `O=c1[nH]c2ccc(CC(=S)N3CCOCC3)cc2s1` .
class 0

Dear all, I need the recorded test outcome for `CN(C)CCOC(=O)c1ccc(N)cc1` , thank you.
class 0

Hi, sorry to bother you, what did the test record for `O=C(/C=C/CC(O)(c1ccccc1)c1ccccc1)Nc1ccccc1Cl` ?
class 0

Would you mind telling me which call this test gave `CCOC(=O)c1nc2ccccc2nc1NCc1ccc(Cl)cc1Cl` ?
class 0

Record request — test call for `N/C(=N\O)N/N=C\c1c2ccccc2c(Cl)c2ccccc12`
class 0

Outcome logged for `O=c1nc2n3c4c(cccc4nc-2c(=O)[nH]1)CCC3` in this assay:
class 0

Given COc1ccc(C(=O)C(c2ccc(OC)cc2)C2(O)C(=O)Nc3c2ccc(Cl)c3C)cc1 (configuration not stated) , state the outcome it received in this test.
class 0

Each compound tested received a call. Report the one for `Cn1c(=O)ccc2c(=O)c3ccccc3oc21` .
class 0

# fetch the recorded call for `Cc1[nH]c(=O)nc(N/N=C/c2ccc(O)cc2)c1C(=O)Nc1ccc(O)cc1` here
class 0

For `COC(=O)c1ccc(NCc2c(O)ccc(O)c2Br)cc1Cl` , which call appears in the assay record?
class 0

Hi, sorry to bother you, what did the test record for S=C1CC(c2ccccc2)Sc2cc(Cl)ccc2N1 (configuration not stated) ?
class 1

###

test system: NCI-H522; assay: NCI tumour cell line growth inhibition, 48 h
Calls of active or inactive are those of the source. Rule as the data show it: active = GI50 up to about 1.1 µM and inactive = higher. Where a SMILES comes first, the peptide text is derived from it. [ ]: non-standard residue; d: D form. ξ: configuration not given here. ξThz(5,5-Me2) = CC1(C)SCNC1C(=O)O
Valid outcomes are listed here; reply with one: yes = active, no = inactive

Name the outcome recorded for `CC(=O)Nc1ccc(-c2nnc(SCC(=O)Nc3ccc([N+](=O)[O-])cc3)o2)cc1` in the assay.
no

Please state the recorded outcome for this compound: O=C1CC(CC(O)C(O)C(O)CO)CC(=O)N1 (stereo unspecified)
no

// param item: `O=C(c1ccccc1)[C@@H]1C[C@H](Sc2ccccc2)c2cc(Cl)ccc2N1` ; yields the recorded call
no

Dear all, I need the recorded test outcome for CC12Nc3ccccc3N1C(=O)c1ccccc12 (stereo unspecified) , thank you.
no

// param item: `Cc1cccc2c(N)c3cccc(C(=O)NCC[N+](C)(C)Cc4ccc([N+](=O)[O-])n4C)c3nc12` ; yields the recorded call
no

What call does the record list for CCCNC(C#N)c1ccc(OCCCCCCCCCCOc2ccc(C(C#N)NCCC)cc2)cc1 (stereo unspecified) ?
no

Field: outcome | Entry: CSCC[C@H](NC(=O)[C@H](CC(C)C)NC(=O)[C@H](Cc1c[nH]cn1)NC(=O)CNC(=O)C1N(C(=O)[C@@H](C)NC(=O)[C@H](Cc2c[nH]c3ccccc23)NC(=O)[C@H](CCC(N)=O)NC(=O)[C@@H](N)CC(N)=O)CSC1(C)C)C(N)=O (stereo partly specified) (H-NQW[dA][ξThz(5,5-Me2)]GHLM-NH2)
no

Hi, do you know how `CCN(CC)CC/N=c1\c2cc(OC)ccc2[nH]c2c([N+](=O)[O-])ccc(NCCN(CC)CC)c12` came out in this test?
no

So what was the verdict on `Cc1cc(=O)nc(S(=O)(=O)NC(=S)Nc2ccc(Br)cc2)[nH]1` in this test?
no

Which outcome did this test record for the compound `O=C1/C(=C/c2ccc(OC(=O)c3ccccc3)cc2)CCC/C1=C\c1ccc(OC(=O)c2ccccc2)cc1` ?
no

Which outcome did this test record for the compound `CCOP(=O)(Nc1ccc2oc(=O)c3ccccc3c2c1)OCC` ?
no

Check the results log: what was the call for Fc1cccc(F)c1C1SCc2nc3ccc(Cl)cc3n21 (stereo unspecified) ?
no

I'd appreciate the recorded outcome for `c1ccc(CNCCN2CCNCC2)nc1` from this test.
no

Hey, what did the test say about COc1cc2c(cc1OC)C(C#N)(Cc1ccccc1)N(C(=O)c1ccccc1)C=C2 (stereo unspecified) ?
no

Which outcome was entered for the compound `Nc1c(C(=O)Nc2ccc(C3=NCCN3)cc2)cccc1C(=O)Nc1ccc(C2=NCCN2)cc1` in this test?
no

Answer briefly: the call reported for CCCC(=O)OCC(O)CO (stereo unspecified) in this assay.
no

Hi, sorry to bother you, what did the test record for `CCOC(=O)/C(C(=S)NCc1ccccc1)=C(/N)N1CCCC1` ?
no

Kindly provide the recorded test outcome for the following compound: COc1cc(O)c2c(c1)C(=O)c1cc3c(c(O)c1C2=O)C(OC1OC(C)C(OC)C(O)C1OC)C(OC)C(C)(O)C3=O (stereo unspecified)
no

GET /call?item= `O=C(CC(Cl)(Cl)C(Cl)(Cl)Cl)c1ccccc1` returns the recorded outcome of this test.
no

What call does the record list for O=C1CCCCC1CN1CCCC1 (stereo unspecified) ?
yes

For `Cc1ccc(O)c(Cc2nc3ccccc3nc2-c2cccc(Br)c2)c1` , which call appears in the assay record?
no
